target: Thyroid hormone receptor beta (Homo sapiens, UniProt P10828)
REPORTED_ENDPOINT: IC50

{"MOL": "O=C(O)CCc1cc(Br)c(OCc2cccc(Br)c2)c(Br)c1", "REPORTED_ENDPOINT": "IC50", "ASSAY_RESULT": "230 nM"}

====

biological target: Mineralocorticoid receptor (Homo sapiens, UniProt P08235)
Sequence (P08235 whole entry): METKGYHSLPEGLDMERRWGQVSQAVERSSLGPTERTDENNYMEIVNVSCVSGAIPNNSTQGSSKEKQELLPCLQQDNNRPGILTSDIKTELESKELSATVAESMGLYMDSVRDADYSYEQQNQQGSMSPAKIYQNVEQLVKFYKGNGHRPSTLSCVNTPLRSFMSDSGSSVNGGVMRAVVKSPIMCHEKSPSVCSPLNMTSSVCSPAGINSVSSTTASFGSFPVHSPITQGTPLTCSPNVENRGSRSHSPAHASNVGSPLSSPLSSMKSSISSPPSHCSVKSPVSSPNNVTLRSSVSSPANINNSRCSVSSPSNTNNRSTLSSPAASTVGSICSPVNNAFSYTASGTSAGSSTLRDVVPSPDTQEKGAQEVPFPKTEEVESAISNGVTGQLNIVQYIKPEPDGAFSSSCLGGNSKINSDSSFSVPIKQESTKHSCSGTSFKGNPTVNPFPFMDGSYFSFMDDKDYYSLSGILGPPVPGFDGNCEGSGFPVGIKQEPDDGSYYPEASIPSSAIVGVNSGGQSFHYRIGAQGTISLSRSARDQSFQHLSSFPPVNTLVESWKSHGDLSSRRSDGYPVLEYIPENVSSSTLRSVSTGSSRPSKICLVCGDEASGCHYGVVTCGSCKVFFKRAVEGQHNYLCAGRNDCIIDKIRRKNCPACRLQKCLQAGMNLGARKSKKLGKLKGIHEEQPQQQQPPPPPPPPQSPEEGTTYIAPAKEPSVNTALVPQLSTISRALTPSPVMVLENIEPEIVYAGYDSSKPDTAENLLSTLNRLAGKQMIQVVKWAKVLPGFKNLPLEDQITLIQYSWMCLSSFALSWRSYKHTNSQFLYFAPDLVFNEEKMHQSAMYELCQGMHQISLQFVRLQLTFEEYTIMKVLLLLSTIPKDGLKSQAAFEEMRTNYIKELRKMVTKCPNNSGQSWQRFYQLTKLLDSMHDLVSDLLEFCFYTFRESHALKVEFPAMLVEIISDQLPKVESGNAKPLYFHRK

{"MOL": "O=C(O)CCc1cc(Br)c(OCc2cccc(Br)c2)c(Br)c1", "VALUE_UNITS": "µM", "IC50": 8.7}

====

biological target: UniProtKB P10827; assay: Binding affinity at human TRalpha1
Sequence (P10827 whole entry): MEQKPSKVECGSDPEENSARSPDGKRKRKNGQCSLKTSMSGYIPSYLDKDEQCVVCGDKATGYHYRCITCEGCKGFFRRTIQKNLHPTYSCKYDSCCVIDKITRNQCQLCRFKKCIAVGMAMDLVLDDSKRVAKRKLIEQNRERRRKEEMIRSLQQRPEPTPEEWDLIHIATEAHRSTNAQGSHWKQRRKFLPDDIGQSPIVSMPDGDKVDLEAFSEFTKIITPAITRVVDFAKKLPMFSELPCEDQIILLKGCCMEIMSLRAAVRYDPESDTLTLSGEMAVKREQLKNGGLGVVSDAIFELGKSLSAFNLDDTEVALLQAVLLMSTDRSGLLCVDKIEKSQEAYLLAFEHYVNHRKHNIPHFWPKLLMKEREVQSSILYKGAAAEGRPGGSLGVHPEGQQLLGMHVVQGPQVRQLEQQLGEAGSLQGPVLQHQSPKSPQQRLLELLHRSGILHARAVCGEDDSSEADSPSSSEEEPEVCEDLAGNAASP
Recorded IC50 values for a group of compounds are listed next.

{"MOL": "Cc1ccccc1COc1c(Br)cc(CCC(=O)O)cc1Br", "IC50 / nM": 1300}
{"MOL": "O=C(O)CCc1cc(Br)c(OCc2cccc(C(F)(F)F)c2)c(Br)c1", "IC50 / nM": 370}
{"MOL": "CCNc1cccc(COc2c(Br)cc(CCC(=O)O)cc2Br)c1", "IC50 / nM": 78}
{"MOL": "O=C(O)CCc1cc(Br)c(OCc2cccc(Cl)c2)c(Br)c1", "IC50 / nM": 500}
{"MOL": "O=C(O)CCc1cc(Br)c(OCc2ccccc2)c(Br)c1", "IC50 / nM": 680}
{"MOL": "CCN(CC)c1cccc(COc2c(Br)cc(CCC(=O)O)cc2Br)c1", "IC50 / nM": 480}
{"MOL": "O=C(O)CCc1cc(Br)c(OCc2cccc(Br)c2)c(Br)c1", "IC50 / nM": 99}
{"MOL": "Cc1cccc(COc2c(Br)cc(CCC(=O)O)cc2Br)c1", "IC50 / nM": 360}
{"MOL": "Nc1cccc(COc2c(Br)cc(CCC(=O)O)cc2Br)c1", "IC50 / nM": 2600}
{"MOL": "Cc1ccc(COc2c(Br)cc(CCC(=O)O)cc2Br)cc1", "IC50 / nM": 600}

====

Target: Thyroid hormone receptor beta (Homo sapiens)
Sequence (P10828 whole entry): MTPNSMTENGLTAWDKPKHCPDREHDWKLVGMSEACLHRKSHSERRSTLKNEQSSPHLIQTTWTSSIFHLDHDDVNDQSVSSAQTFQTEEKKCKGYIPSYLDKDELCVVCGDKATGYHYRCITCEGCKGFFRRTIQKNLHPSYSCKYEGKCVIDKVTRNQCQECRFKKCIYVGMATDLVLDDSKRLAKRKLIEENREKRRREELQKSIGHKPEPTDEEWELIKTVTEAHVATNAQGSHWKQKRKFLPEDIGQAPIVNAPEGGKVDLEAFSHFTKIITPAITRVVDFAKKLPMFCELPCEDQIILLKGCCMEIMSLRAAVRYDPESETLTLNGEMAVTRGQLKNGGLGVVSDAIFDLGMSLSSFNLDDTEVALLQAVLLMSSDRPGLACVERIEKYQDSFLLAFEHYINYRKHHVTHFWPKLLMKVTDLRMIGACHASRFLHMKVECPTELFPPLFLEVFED
Test: Binding affinity at human TRbeta1
pIC50: −log10 of the molar value.
The reader will find reported pIC50 values listed item by item below.

{"MOL": "Cc1cccc(COc2c(Br)cc(CCC(=O)O)cc2Br)c1", "pIC50": 6.92}
{"MOL": "O=C(O)CCc1cc(Br)c(OCc2cccc(C(F)(F)F)c2)c(Br)c1", "pIC50": 6.80}
{"MOL": "CCN(CC)c1cccc(COc2c(Br)cc(CCC(=O)O)cc2Br)c1", "pIC50": 7.06}
